Test system: biotinyl-Phe-oxazolone
Experiment: self-aminoacylation, catalytic enhancement (BFO) (fold over background); higher = more active; k-Seq, kA / k0A0; sequences stand for … in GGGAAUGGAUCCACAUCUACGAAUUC…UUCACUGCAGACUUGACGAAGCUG
This sample holds only a part of the variants without activity.
Form field: self-aminoacylation (one value per entry).
Give the figure by itself; no unit, no explanation.

>>> number("CUACUUCAAACAAUCGUUCCG [Fam1A.1 aminoacylation ribozyme variant]")
0.562
>>> number("AAGUGUGCUAAGAGUCGCAAG [Fam3.1 aminoacylation ribozyme variant]")
5.24
>>> number("AUUAACCUUGGUCAUCGGGUG [Fam2.2 aminoacylation ribozyme variant]")
41.7
>>> number("AUUCAACUAGGUUAUCGGGUG [Fam2.2 aminoacylation ribozyme variant]")
22.1
>>> number("AUUUACCCAGGUCAUCGGGUG [Fam2.2 aminoacylation ribozyme variant]")
44.3

Ask | Which self-aminoacylation is reported with biotinyl-Phe-oxazolone for this entry: AUUACCCUGGUCAGGGAGUGA [Fam2.1 aminoacylation ribozyme variant] ?
Reply | 18.9

Ask | Which self-aminoacylation is reported with biotinyl-Phe-oxazolone for this entry: CUCCUUCAAACAAUCAGUCUG [Fam1A.1 aminoacylation ribozyme variant] ?
Reply | 20

Ask | Which self-aminoacylation is reported with biotinyl-Phe-oxazolone for this entry: GAGUUUGCUAAUAGUCGCAAG [Fam3.1 aminoacylation ribozyme variant] ?
Reply | 22.7

Ask | Which self-aminoacylation is reported with biotinyl-Phe-oxazolone for this entry: CCGCACUUCAAGCAAUCGGCC [Fam1B.1 aminoacylation ribozyme variant] ?
Reply | 6.69

Ask | Which self-aminoacylation is reported with biotinyl-Phe-oxazolone for this entry: AUUCACCUAGGUCACCGGGGG [Fam2.2 aminoacylation ribozyme variant] ?
Reply | 21.4

Ask | Which self-aminoacylation is reported with biotinyl-Phe-oxazolone for this entry: CUCCUUCAACCAAUCGGUCUG [Fam1A.1 aminoacylation ribozyme variant] ?
Reply | 29.5

Ask | Which self-aminoacylation is reported with biotinyl-Phe-oxazolone for this entry: AUUCACUUACGUCAUCGGGUG [Fam2.2 aminoacylation ribozyme variant] ?
Reply | 38.4

Ask | Which self-aminoacylation is reported with biotinyl-Phe-oxazolone for this entry: CUUACCCUGGUCAUCGCGUGA [Fam2.1 aminoacylation ribozyme variant] ?
Reply | 148

Ask | Which self-aminoacylation is reported with biotinyl-Phe-oxazolone for this entry: AUUACCCGGGUCUUCGAGUGA [Fam2.1 aminoacylation ribozyme variant] ?
Reply | 44.4

Ask | Which self-aminoacylation is reported with biotinyl-Phe-oxazolone for this entry: CUACUUCCAACAAUGGGUCUG [Fam1A.1 aminoacylation ribozyme variant] ?
Reply | 0.635

Ask | Which self-aminoacylation is reported with biotinyl-Phe-oxazolone for this entry: CCAGACUUCAAGCAAUCGGUC [Fam1B.1 aminoacylation ribozyme variant] ?
Reply | 43.9

Ask | Which self-aminoacylation is reported with biotinyl-Phe-oxazolone for this entry: AUUACCCUGGUCUUCGAAUGA [Fam2.1 aminoacylation ribozyme variant] ?
Reply | 0.408

Ask | Which self-aminoacylation is reported with biotinyl-Phe-oxazolone for this entry: CCACACUUCAGGCUAUCGGUC [Fam1B.1 aminoacylation ribozyme variant] ?
Reply | 0.514

----------
Form field: self-aminoacylation (one value per entry).
Test system: biotinyl-Trp-oxazolone
Test: self-aminoacylation, catalytic enhancement (BWO) (fold over background); higher = more active; k-Seq, kA / k0A0; sequences stand for … in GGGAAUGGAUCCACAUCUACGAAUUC…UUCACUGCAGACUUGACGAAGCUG
Variants at the floor of the assay were thinned out.

>>> result("CCACACUUCUAGCCAUCGGUC [Fam1B.1 aminoacylation ribozyme variant]")
0.962
>>> result("CCACAAUUCAACCAAUCGGUC [Fam1B.1 aminoacylation ribozyme variant]")
5.9
>>> result("ACGUUUGCUAAUAGUCACAAG [Fam3.1 aminoacylation ribozyme variant]")
1.82

Ask | Query: self-aminoacylation; subject: CCAAACUUCAAGCAAUCGGUU [Fam1B.1 aminoacylation ribozyme variant]
Reply | 4.36

Ask | Query: self-aminoacylation; subject: AUUAACCUGGUCACCGAGUGA [Fam2.1 aminoacylation ribozyme variant]
Reply | 7.92

Ask | Query: self-aminoacylation; subject: CUACGCUUCAAGCAAUCGGUC [Fam1B.1 aminoacylation ribozyme variant]
Reply | 29.9
